Some compounds, each annotated with its measured inhibition at 50 µM.
target: TcSir2rp1 (Trypanosoma cruzi, UniProt Q4DVL9); assay: TcSir2rp1 NAD+-dependent deacetylase fluorimetric assay (CycLex kit); assay type: biochemical; conditions: 50 μM
Sequence (Q4DVL9 entry or part of it): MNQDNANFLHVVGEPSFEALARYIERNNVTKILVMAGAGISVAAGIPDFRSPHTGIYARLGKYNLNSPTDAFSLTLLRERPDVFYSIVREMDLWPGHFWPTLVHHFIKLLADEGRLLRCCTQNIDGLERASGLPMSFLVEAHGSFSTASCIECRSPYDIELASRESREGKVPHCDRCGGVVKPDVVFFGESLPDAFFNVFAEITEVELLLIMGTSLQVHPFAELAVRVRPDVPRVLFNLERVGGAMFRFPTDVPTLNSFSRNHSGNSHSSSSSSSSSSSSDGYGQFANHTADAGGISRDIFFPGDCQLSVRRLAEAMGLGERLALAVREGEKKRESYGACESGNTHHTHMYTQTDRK

- CHEM_SMILES: "O=C1c2cccc3cccc(c23)C(=O)N1CCCNCCCCCNCCCN1C(=O)c2cccc3cccc(c23)C1=O"
  VALUE_UNITS: "%"
  inhibition at 50 µM: 55
- CHEM_SMILES: "O=C1c2cccc3cccc(c23)C(=O)N1CCCNCCCCNCCCNCCCN1C(=O)c2cccc3cccc(c23)C1=O"
  VALUE_UNITS: "%"
  inhibition at 50 µM: 72
- CHEM_SMILES: "O=C1c2cccc3cccc(c23)C(=O)N1CCCNCCOCCOCCNCCCN1C(=O)c2cccc3cccc(c23)C1=O"
  VALUE_UNITS: "%"
  inhibition at 50 µM: 29
- CHEM_SMILES: "O=C1c2cccc3cccc(c23)C(=O)N1CCCNCCCCCCCCCCCCNCCCN1C(=O)c2cccc3cccc(c23)C1=O"
  VALUE_UNITS: "%"
  inhibition at 50 µM: 31

* * *

biological target: TcSir2rp1 (Trypanosoma cruzi); assay: TcSir2rp1 NAD+-dependent deacetylase fluorimetric assay (CycLex kit); format: biochemical; conditions: single dose 10 μM; 200 μM NAD+, 10 μM peptide

- MOLECULE: "O=C1c2cccc3cccc(c23)C(=O)N1CCCNCCCCCCNCCCN1C(=O)c2cccc3cccc(c23)C1=O"
  ASSAY_TARGET: "TcSir2rp1 (Trypanosoma cruzi)"
  VALUE_UNITS: "%"
  inhibition at 10 µM: 31
- MOLECULE: "O=C1c2cccc3c(Cl)ccc(c23)C(=O)N1CCCN1CCN(CCCN2C(=O)c3cccc4c(Cl)ccc(c34)C2=O)CC1"
  ASSAY_TARGET: "TcSir2rp1 (Trypanosoma cruzi)"
  VALUE_UNITS: "%"
  inhibition at 10 µM: 50
- MOLECULE: "O=C1c2cccc3cccc(c23)C(=O)N1CCCNC1CCC(CC2CCC(NCCCN3C(=O)c4cccc5cccc(c45)C3=O)CC2)CC1 (stereo not drawn)"
  ASSAY_TARGET: "TcSir2rp1 (Trypanosoma cruzi)"
  VALUE_UNITS: "%"
  inhibition at 10 µM: 8
- MOLECULE: "O=C1c2cccc3cccc(c23)C(=O)N1CCCNCCOCCOCCNCCCN1C(=O)c2cccc3cccc(c23)C1=O"
  ASSAY_TARGET: "TcSir2rp1 (Trypanosoma cruzi)"
  VALUE_UNITS: "%"
  inhibition at 10 µM: 28
- MOLECULE: "O=C1c2cccc3cccc(c23)C(=O)N1CCCNCCCCCNCCCN1C(=O)c2cccc3cccc(c23)C1=O"
  ASSAY_TARGET: "TcSir2rp1 (Trypanosoma cruzi)"
  VALUE_UNITS: "%"
  inhibition at 10 µM: 42

* * *

Experiment: MTT cytotoxicity on MDCK cells
Assay type: cell-based
Settings: dog, MDCK; CC50 cell line / EC50 T. cruzi; read-out: Selectivity Index, MDCK cells
Description: To evaluate toxicity towards mammalian cell lines (hepatocytes (Seralab), neurons and MDCK cells (ATCC); a renal cell line from dogs), all the compounds were assayed with MTT [66]. Additionally, for cardiotoxicity evaluation, where toxic effects in cardiomyocytes could be affecting their function before being lethal, a hERG assay was performed according to the manufacturer’s protocol Predictor hERG Fluorescence Polarization Assay (Invitrogen). […]
QUANTITY_NAME: selectivity ratio

- CHEM_SMILES: "O=C1c2cccc3cccc(c23)C(=O)N1CCCNCCCCNCCCNCCCN1C(=O)c2cccc3cccc(c23)C1=O"
  QUANTITY_NAME: "selectivity ratio"
  REPORTED_RESULT: 35.2
